- Target Or Test System: HIV protease (Human immunodeficiency virus type 1 group M subtype B)
- Experimental Protocol: peptide cleavage assay (HIV protease assay)
- Format: biochemical
pIC50: −log10 of the molar value.
Measured Quantity: pIC50

Problem: Requested read-out: pIC50. Entry: C=C1C(C)C2C(Cc3ccccc3)NC(=O)C23C(OC(C)=O)C=CC(C)CC(C)CC=CC3C1O (stereo not shown)
Solution: ~5.20

---

- Target Or Test System: HIV protease (Human immunodeficiency virus type 1 group M subtype B, UniProt P04585)
- Experimental Protocol: Assay for Inhibition of Recombinant HIV Protease (tritiated peptide substrate cleavage)
- Format: biochemical
- Design: the HIV protease expressed in Escherichia coli; made in house; host or cells: Escherichia coli
- Condition Context: pH 5.5, 60 minutes at 37° C., HIV protease expressed in Escherichia coli, [3H]-peptide substrate
Entries and their measured pIC50 follow.
Reminder that pIC50 means the negative base-10 logarithm of the concentration expressed in mol/L.

Compound	Measured Quantity	Value Measured
C=C1C(C)C2C(Cc3ccc(O)cc3)NC(=O)C23C(OC(C)=O)C=CC(C)CC(CO)CC=CC3C1O (stereo not shown) [Compound 3]	pIC50	4.40
C=C1C(C)C2C(Cc3cccc(O)c3)NC(=O)C23C(OC(C)=O)C=CC(C)CC(CO)CC=CC3C1O (stereo not shown) [Compound 4]	pIC50	4.60

Problem: Requested read-out: pIC50. Entry: C=C1C(C)C2C(Cc3ccccc3)NC(=O)C23C(OC(C)=O)C=CC(C)CC(C)CC=CC3C1O (stereo not shown) [Compound 1]
Solution: 5.00

Problem: Requested read-out: pIC50. Entry: C=C1C(C)C2C(Cc3ccccc3)NC(=O)C23C(OC(C)=O)C=CC(C)CC(CO)CC=CC3C1O (stereo not shown) [Compound 2]
Solution: 4.37

---

- Target Or Test System: UniProt P04585
- Experimental Protocol: Assay for Inhibition of Recombinant HIV Protease (tritiated peptide substrate cleavage)
- Format: biochemical
- Parameters: the HIV protease expressed in Escherichia coli; made in house; host or cells: Escherichia coli
- Condition Context: pH 5.5, 60 minutes at 37° C., HIV protease expressed in Escherichia coli, [3H]-peptide substrate
- Method: Assay for Inhibition of Recombinant HIV Protease […] Aliquots of 25 μl containing 6.0-8.0 nM HIV protease in assay buffer (100 mM sodium acetate, pH 5.5 and 0.1% BSA) are placed in assay tubes. […] After incubation for 60 minutes at 37° C., the reaction is stopped with 100 μl of 5% H3 PO4, then analysed by application of column chromatography.
Entries and their measured IC50 follow.

Reference set (2 entries):
Molecule	IC50
C=C1C(C)C2C(Cc3ccc(O)c(O)c3)NC(=O)C23C(OC(C)=O)C=CC(C)CC(CO)CC=CC3C1O (stereo not drawn)	> 50 µM
C=C1C(C)C2C(Cc3ccccc3)NC(=O)C23C(OC(C)=O)C=CC(C)CC(O)(CO)CC=CC3C1O (stereo not drawn)	> 50 µM

Continue with the molecule presented below.
Problem: Requested read-out: IC50. Entry: C=C1C(C)C2C(Cc3cccc(O)c3)NC(=O)C23C(OC(C)=O)C=CC(C)CC(O)(CO)CC=CC3C1O (stereo not drawn)
Solution: > 50 µM

Cited source: patent US5250563A
